Measured %Inh accompanies every entry in the list below.
- Tested on: PRKX;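 note: KINOMEscan kinase panel screen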
- assay.conditions: concentration: 1 μM, replicates: in singlicate; n = 1
State just the number; it will be interpreted in %.

# example entries with known answers
# entry.smiles, %Inh [%]
data = [
    ("COc1cc2ncn(-c3cc(OCc4sccc4Cl)c(C(N)=O)s3)c2cc1OC", 0),
    ("Cc1ccc(C(=O)NCC(N)=O)cc1-n1c(C)cc(OCc2ccc(F)cc2F)c(Br)c1=O", 22),
    ("Cc1cccc(-c2nc(-c3ccc(S(C)(=O)=O)cc3)sc2-c2ccncc2)c1", 1),
    ("COc1ccc(COc2cc(-n3cnc4ccccc43)sc2C(N)=O)cc1", 10),
    ("CCc1ccnc(/C=C/c2n[nH]c3cc(Sc4ccccc4C(=O)NC)ccc23)c1", 29),
]

Record O=C(NCCNc1ccnc(Nc2ccc(F)cc2)n1)c1cc2ccccc2s1 . Reported %Inh: 4

Record O=c1cc(N2CCOCC2)nc2n(Cc3cccc4ccccc34)ccn12 . Reported %Inh: 26

Record Nc1nc(-c2ccc3c(N)n[nH]c3c2)cc(N2CCCC2)n1 . Reported %Inh: 1

Record O=c1cc(N2CCOCC2)nc2n(Cc3cccc(F)c3)ccn12 . Reported %Inh: 2
